Recorded measurements of pEC50, one per entry
# systemName: hNPY2R (Homo sapiens, UniProt P49146)
# Construct: expressed in transfected cells; host or cells: HEK-293 cells carrying a CRE-luciferase reporter gene
# Sequence (P49146 whole entry): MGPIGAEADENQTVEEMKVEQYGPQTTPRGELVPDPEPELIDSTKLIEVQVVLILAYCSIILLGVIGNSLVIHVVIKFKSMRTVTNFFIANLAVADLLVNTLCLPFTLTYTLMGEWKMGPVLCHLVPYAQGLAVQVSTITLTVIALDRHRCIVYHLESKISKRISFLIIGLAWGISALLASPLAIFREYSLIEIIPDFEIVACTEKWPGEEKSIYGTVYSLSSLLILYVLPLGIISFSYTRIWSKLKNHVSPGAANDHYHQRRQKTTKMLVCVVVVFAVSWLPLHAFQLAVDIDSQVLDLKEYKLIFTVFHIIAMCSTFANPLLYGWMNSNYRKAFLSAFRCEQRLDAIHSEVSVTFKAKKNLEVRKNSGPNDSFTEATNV
# protocol: hNPY2R CreLuc reporter gene assay in 0.5% and 100% plasma
# Assay type: cell-based
# experimentalParameters: CreLuc reporter gene assay, 100% human plasma; read-out: hNPY2R 100% hP
Starred links: 1 amine or outer side, 2 acyl side, 3 side chain; linkers in the order of their positions; H or OH if unused. Non-standard residues stand in square brackets, D forms with d. Groups on a side chain read outwards from the residue. *: point of attachment. C20 diacid = O=C(O)CCCCCCCCCCCCCCCCCCC(=O)*; C18 diacid = O=C(O)CCCCCCCCCCCCCCCCC(=O)*; γGlu = O=C(O)[C@H](CCC(=O)[*:2])N[*:1]; εLys = N[C@@H](CCCCN[*:1])C(=O)[*:2]; AEEA = NCCOCCOCC(=O)O; Aib = CC(C)(N)C(=O)O
Scale explanation: pEC50 corresponds to minus log10 of a concentration expressed in moles per litre.

| substance | pEC50 |
| --- | --- |
| H-Y[Aib]EGTFTSDYSI[Aib]LEKQAQ[Aib]AFVEWLIK([AEEA-AEEA-γGlu-γGlu-γGlu-γGlu-C18 diacid])GGPEEPASLRHYYNWLTRQRY-NH2 [Compound 161] | 7.38 |
| H-Y[Aib]EGTFTSDYSI[Aib]LEKQAQ[Aib]AFVQWLIK([γGlu-γGlu-γGlu-γGlu-γGlu-C18 diacid])GGPESGASLRHYYNWLTRQRY-NH2 [Compound 53] | 7.30 |
| H-Y[Aib]EGTFTSDYSI[Aib]LEKQAQ[Aib]AFVQWLIK([εLys-γGlu-γGlu-γGlu-γGlu-γGlu-C18 diacid])GGPSEPASLRHYYNWLTRQRY-NH2 [Compound 148] | 7.68 |

In: # lookup: pEC50 of H-Y[Aib]EGTFTSDYSI[Aib]LEKQAQ[Aib]AFVEWLIK([εLys-γGlu-γGlu-γGlu-γGlu-γGlu-γGlu-C20 diacid])GGPSSGASL[Aib]HYYNWLTRQRY-NH2 [Compound 129]
Out: 7.06

In: Requested field: pEC50. Item: H-Y[Aib]EGTFTSDYSI[Aib]LEKQAQ[Aib]AFVQWLIK([AEEA-AEEA-γGlu-γGlu-γGlu-γGlu-γGlu-C20 diacid])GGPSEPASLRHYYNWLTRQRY-NH2 [Compound 111]
Out: 7.43

====

# systemName: hGIPR (Homo sapiens)
# Construct: expressed in transfected cells; host or cells: CHO cells carrying a CRE-luciferase reporter gene
# Sequence (P48546 22-466): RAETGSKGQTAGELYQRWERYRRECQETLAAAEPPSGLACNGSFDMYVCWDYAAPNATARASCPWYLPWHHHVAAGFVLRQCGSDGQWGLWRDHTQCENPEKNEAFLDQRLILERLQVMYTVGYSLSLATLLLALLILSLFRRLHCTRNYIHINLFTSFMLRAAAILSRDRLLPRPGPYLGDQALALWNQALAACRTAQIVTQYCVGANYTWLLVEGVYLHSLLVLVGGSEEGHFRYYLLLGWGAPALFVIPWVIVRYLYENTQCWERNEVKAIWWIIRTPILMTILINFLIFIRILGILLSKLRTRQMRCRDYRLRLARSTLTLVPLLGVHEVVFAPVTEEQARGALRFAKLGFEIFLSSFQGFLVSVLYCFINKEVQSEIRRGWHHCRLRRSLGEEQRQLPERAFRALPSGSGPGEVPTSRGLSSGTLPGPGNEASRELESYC
# protocol: hGIPR CreLuc reporter gene assay in 0.5% and 100% plasma
# Assay type: cell-based
# experimentalParameters: CreLuc reporter gene assay, 0.5% human plasma; read-out: hGIPR 0.5% hP
# Method: Example 1: hGLPR/hGIPR/hNPY2R CreLuc Assay in 0.5% and 100% Plasma CHO and HEK-293 recombinant cell lines express a luciferase reporter gene under control of the cAMP responsive element (CRE). […] Following incubation, assay plates are equilibrated to room temperature, followed by addition of 25 μl of Bright-GIo™ Luciferase reagent, incubation at room temperature for 10 minutes and analysis of luminescence (Envision Reader). […]
Starred links: 1 amine or outer side, 2 acyl side, 3 side chain; linkers in the order of their positions; H or OH if unused. Non-standard residues stand in square brackets, D forms with d. Groups on a side chain read outwards from the residue. *: point of attachment. C20 diacid = O=C(O)CCCCCCCCCCCCCCCCCCC(=O)*; C18 diacid = O=C(O)CCCCCCCCCCCCCCCCC(=O)*; γGlu = O=C(O)[C@H](CCC(=O)[*:2])N[*:1]; εLys = N[C@@H](CCCCN[*:1])C(=O)[*:2]; AEEA = NCCOCCOCC(=O)O; Aib = CC(C)(N)C(=O)O
reportedProperty: pEC50
// returns pEC50 (minus log10 of molar concentration), number only

Please review the entries below; each comes with its answer.
| substance | systemName | pEC50 |
| --- | --- | --- |
| H-Y[Aib]EGTFTSDYSI[Aib]LEKQAQ[Aib]AFVEWLIK([AEEA-AEEA-γGlu-γGlu-γGlu-γGlu-γGlu-C20 diacid])GGPSSGASLRHYYNWLTRQRY-NH2 [Compound 229] | hGIPR (Homo sapiens) | 9.66 |
| H-Y[Aib]EGTFTSDYSI[Aib]LEKQAQ[Aib]AFVEWLIK([εLys-γGlu-γGlu-γGlu-γGlu-γGlu-γGlu-C20 diacid])GGPSSGASLRHY[Aib]NR[Aib]TRQRY-NH2 [Compound 18] | hGIPR (Homo sapiens) | 9.44 |

As a next step, examine the substance that follows.
In: Query: pEC50; subject: H-Y[Aib]EGTFTSDYSI[Aib]LEKQAE[Aib]AFVEWLIK([AEEA-AEEA-γGlu-γGlu-γGlu-γGlu-C18 diacid])GGPSEGASLRHYYNWLTRQRY-NH2 [Compound 251]
Out: 9.80
